compounds and their reported pIC50
Target: NRAS WT binding to BRAF RBD (Homo sapiens (Human), UniProt P01111+P62937)
Sequence (P01111 whole entry): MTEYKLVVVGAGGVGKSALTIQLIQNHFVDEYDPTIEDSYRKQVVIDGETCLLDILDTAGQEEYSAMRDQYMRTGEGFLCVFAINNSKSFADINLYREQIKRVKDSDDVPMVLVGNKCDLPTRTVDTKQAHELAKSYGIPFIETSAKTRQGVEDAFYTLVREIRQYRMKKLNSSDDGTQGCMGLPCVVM
Sequence (P62937 whole entry): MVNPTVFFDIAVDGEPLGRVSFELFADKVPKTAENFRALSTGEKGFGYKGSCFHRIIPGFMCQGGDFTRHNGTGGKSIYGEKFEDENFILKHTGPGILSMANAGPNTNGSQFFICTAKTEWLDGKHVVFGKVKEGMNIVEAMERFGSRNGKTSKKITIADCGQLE
Assay: Ras-Raf disruption/FRET/MOA assay, NRAS WT
pIC50: −log10 of the molar value.

Compound: C=CC(=O)N(C)CC1CCN(C(=O)N(C)[C@H](C(=O)N[C@H]2Cc3nc(cs3)-c3ccc4c(c3)c(c(-c3cccnc3[C@H](C)OC)n4CC)CC(C)(C)COC(=O)[C@@H]3CCCN(N3)C2=O)C(C)C)CC1 (atropisomer, axis not shown)
Measured Target: NRAS WT binding to BRAF RBD (Homo sapiens (Human), UniProt P01111+P62937)
pIC50: 7.00 to 8.00

Compound: CCn1c(-c2cccnc2[C@H](C)OC)c2c3cc(ccc31)N1CCO[C@@H](C[C@H](NC(=O)[C@H](C(C)C)N(C)C(=O)[C@@]3(F)CCN(C(=O)C#CC(C)(C)N4CCC4)C3)C(=O)N3CCC[C@H](N3)C(=O)OCC(C)(C)C2)C1
Measured Target: NRAS WT binding to BRAF RBD (Homo sapiens (Human), UniProt P01111+P62937)
pIC50: 5.00 to 6.00
